All values here come from patent US20230365662A1.

Reported OD450nm values for the following binders.
Target: HRgpA-6H (Porphyromonas gingivalis) (UniProt P28784)
Test: ELISA on coated HRgpA-6H
experimental.readout: OD450nm

| binder | experimental.readout | test.result |
| --- | --- | --- |
| KB001 mouse Fab FASEBA VH S65V (Fab, V domains shown) VH: EVQLKQSGPGLVAPSQSLSITCTVSGFSLSIYSVHWVRQPPGKGLEWLGMIWGGGSSDYNSALKVRLSISKDNSKSQVFLKMNSLQTDDTAMYYCARNGNFYAMDYWGQGTSVTVSS VL: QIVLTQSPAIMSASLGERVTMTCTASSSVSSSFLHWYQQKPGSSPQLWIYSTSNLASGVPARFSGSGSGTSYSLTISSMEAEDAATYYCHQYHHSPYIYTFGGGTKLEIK | OD450nm | 0.867 |
| KB001 mouse Fab FASEBA VH S61K (Fab, V domains shown) VH: EVQLKQSGPGLVAPSQSLSITCTVSGFSLSIYSVHWVRQPPGKGLEWLGMIWGGGSSDYNKALKSRLSISKDNSKSQVFLKMNSLQTDDTAMYYCARNGNFYAMDYWGQGTSVTVSS VL: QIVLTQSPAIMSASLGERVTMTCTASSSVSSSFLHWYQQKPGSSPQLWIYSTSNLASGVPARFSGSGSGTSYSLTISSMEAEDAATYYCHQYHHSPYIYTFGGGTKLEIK | OD450nm | 0.49 |
| KB001 mouse Fab FASEBA VH K64G (Fab, V domains shown) VH: EVQLKQSGPGLVAPSQSLSITCTVSGFSLSIYSVHWVRQPPGKGLEWLGMIWGGGSSDYNSALGSRLSISKDNSKSQVFLKMNSLQTDDTAMYYCARNGNFYAMDYWGQGTSVTVSS VL: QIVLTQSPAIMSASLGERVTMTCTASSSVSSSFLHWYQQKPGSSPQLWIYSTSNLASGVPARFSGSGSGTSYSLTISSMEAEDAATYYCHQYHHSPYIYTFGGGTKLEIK | OD450nm | 0.806 |
